The measured values listed here are drawn from patent US9850283B2.

molecular target: LK35.2-hPD-L1 cells / PE-labeled PD-1-Ig (Homo sapiens, UniProt Q9NZQ7); construct: expressed in transfected cells; host or cells: LK35.2 mouse B cell line; test: LK35.2-hPD-L1 cell binding high-content screening assay; assay type: cell-based; settings: cell binding assay, cell line not given; cluster symbol; read-out: CBA IC50 cluster
Sequence (Q9NZQ7 19-290): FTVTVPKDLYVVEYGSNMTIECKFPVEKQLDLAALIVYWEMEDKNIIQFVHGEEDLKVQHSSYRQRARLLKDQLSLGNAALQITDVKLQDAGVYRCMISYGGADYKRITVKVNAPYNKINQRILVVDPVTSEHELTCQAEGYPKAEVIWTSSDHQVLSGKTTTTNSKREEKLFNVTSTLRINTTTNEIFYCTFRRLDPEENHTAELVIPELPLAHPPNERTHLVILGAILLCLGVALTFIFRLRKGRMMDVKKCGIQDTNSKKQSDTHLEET
pIC50: −log10 of the molar value. Starred links: 1 amine or outer side, 2 acyl side, 3 side chain; linkers in the order of their positions; H or OH if unused. Positions of bridges follow the written chain, without caps; N, C: chain ends. Non-standard residues stand in square brackets, D forms with d. Residues, ends and D or L forms follow the SMILES beside them. X10 = O=C([C@H](Cc1ccc(F)c(Cl)c1)N[*:1])[*:2]; Phe(4-F) = N[C@@H](Cc1ccc(F)cc1)C(=O)O; Hyp = O=C(O)[C@@H]1C[C@@H](O)CN1; NMeF = CN[C@@H](Cc1ccccc1)C(=O)O; 3Pal = N[C@@H](Cc1cccnc1)C(=O)O; NMeNle = CCCC[C@H](NC)C(=O)O; NMeA = CN[C@@H](C)C(=O)O; Dab = NCC[C@H](N)C(=O)O; Dap = NC[C@H](N)C(=O)O; Sar = CNCC(=O)O
property-measured: pIC50

compound	test-target	measured-value
CCCC[C@H]1C(=O)N(C)[C@@H](CCSC)C(=O)N[C@@H](CCCNC(=N)N)C(=O)NC(C(=O)NCC(N)=O)CSCC(=O)N[C@@H](Cc2ccc(O)cc2)C(=O)N(C)[C@@H](C)C(=O)N[C@@H](CC(N)=O)C(=O)N2CCC[C@H]2C(=O)N[C@@H](Cc2cnc[nH]2)C(=O)N[C@@H](CC(C)C)C(=O)N2C[C@H](O)C[C@H]2C(=O)N[C@@H](Cc2c[nH]c3ccccc23)C(=O)N[C@@H](CO)C(=O)N[C@@H](Cc2c[nH]c3ccccc23)C(=O)N1C (some centres unmarked)	LK35.2-hPD-L1 cells / PE-labeled PD-1-Ig (Homo sapiens, UniProt Q9NZQ7)	8.33 to 9.80
CCCC[C@H]1C(=O)N(C)[C@@H](CCCC)C(=O)N[C@@H](CO)C(=O)N[C@H](C(=O)NCC(N)=O)CSCC(=O)N[C@@H](Cc2ccc(O)cc2)C(=O)N(C)[C@@H](C)C(=O)N[C@@H](CC(N)=O)C(=O)N2CCC[C@H]2C(=O)N[C@@H](CO)C(=O)N[C@@H](CC(C)C)C(=O)N2C[C@H](O)C[C@H]2C(=O)N[C@@H](Cc2c[nH]c3ccccc23)C(=O)N[C@@H](CO)C(=O)N[C@@H](Cc2c[nH]c3ccccc23)C(=O)N1C [Example 5118] ({CH2CO}-Y[NMeA]NPSL[Hyp]WSW[NMeNle][NMeNle]SCG-NH2; thioether N-14)	LK35.2-hPD-L1 cells / PE-labeled PD-1-Ig (Homo sapiens, UniProt Q9NZQ7)	8.33 to 9.80
CCCC[C@H]1C(=O)N(C)CC(=O)N[C@@H](CC(=O)O)C(=O)N[C@@H](C(C)C)C(=O)N(C)[C@@H](Cc2ccccc2)C(=O)N[C@@H](Cc2ccc(O)cc2)C(=O)N(C)CC(=O)N[C@@H](Cc2c[nH]c3ccccc23)C(=O)N[C@@H](Cc2ccc(O)cc2)C(=O)N[C@@H](CC(C)C)C(=O)N[C@H](C(=O)NCC(N)=O)CSCC(=O)N[C@@H](Cc2ccccc2)C(=O)N[C@@H](Cc2cccnc2)C(=O)N1C [Example 3602] ({CH2CO}-F[3Pal][NMeNle][Sar]DV[NMeF]Y[Sar]WYLCG-NH2; thioether N-13)	LK35.2-hPD-L1 cells / PE-labeled PD-1-Ig (Homo sapiens, UniProt Q9NZQ7)	< 7.13
CCCC[C@H]1C(=O)N(C)CC(=O)N[C@@H](CC(=O)O)C(=O)N[C@@H](C(C)C)C(=O)N(C)[C@@H](Cc2ccccc2)C(=O)N[C@@H](Cc2ccc(O)cc2)C(=O)N(C)CC(=O)N[C@@H](Cc2c[nH]c3ccccc23)C(=O)N[C@@H](Cc2ccc(O)cc2)C(=O)N[C@@H](CC(C)C)C(=O)N[C@H](C(=O)NCC(N)=O)CSCC(=O)N[C@@H](Cc2ccc(F)c(Cl)c2)C(=O)N(C)[C@@H](Cc2ccccc2)C(=O)N1C [Example 3567] ({CH2CO}-[X10][NMeF][NMeNle][Sar]DV[NMeF]Y[Sar]WYLCG-NH2; thioether N-13)	LK35.2-hPD-L1 cells / PE-labeled PD-1-Ig (Homo sapiens, UniProt Q9NZQ7)	8.33 to 9.80
CCCC[C@H]1C(=O)N(C)CC(=O)N[C@@H](CC(=O)O)C(=O)N[C@@H](C(C)C)C(=O)N[C@@H](Cc2ccc(F)cc2)C(=O)N[C@@H](Cc2ccc(O)cc2)C(=O)N(C)CC(=O)N[C@@H](Cc2c[nH]c3ccccc23)C(=O)N[C@@H](Cc2ccc(O)cc2)C(=O)N[C@@H](CC(C)C)C(=O)N[C@H](C(=O)NCC(N)=O)CSCC(=O)N[C@@H](Cc2ccccc2)C(=O)N(C)[C@@H](Cc2ccccc2)C(=O)N1C [Example 3570] ({CH2CO}-F[NMeF][NMeNle][Sar]DV[Phe(4-F)]Y[Sar]WYLCG-NH2; thioether N-13)	LK35.2-hPD-L1 cells / PE-labeled PD-1-Ig (Homo sapiens, UniProt Q9NZQ7)	< 7.13
CCCC[C@H]1C(=O)N(C)[C@@H](CCCC)C(=O)N[C@@H](C)C(=O)N[C@H](C(=O)NCC(N)=O)CSCC(=O)N[C@@H](Cc2ccc(O)cc2)C(=O)N(C)[C@@H](C)C(=O)N[C@@H](CC(=O)O)C(=O)N2CCC[C@H]2C(=O)N[C@@H](Cc2cnc[nH]2)C(=O)N[C@@H](CCC(N)=O)C(=O)N2CCC[C@H]2C(=O)N[C@@H](Cc2c[nH]c3ccccc23)C(=O)N[C@@H](CO)C(=O)N[C@@H](Cc2c[nH]c3ccccc23)C(=O)N1C [Example 6024] ({CH2CO}-Y[NMeA]DPHQPWSW[NMeNle][NMeNle]ACG-NH2; thioether N-14)	LK35.2-hPD-L1 cells / PE-labeled PD-1-Ig (Homo sapiens, UniProt Q9NZQ7)	8.33 to 9.80
CCCC[C@H]1C(=O)N(C)[C@@H](CCCC)C(=O)N[C@@H](CC(C)C)C(=O)N[C@H](C(=O)NCC(N)=O)CSCC(=O)N[C@@H](Cc2ccc(O)cc2)C(=O)N(C)[C@@H](C)C(=O)N[C@@H](CC(N)=O)C(=O)N2CCC[C@H]2C(=O)N[C@@H](CO)C(=O)N[C@@H](CC(C)C)C(=O)N2C[C@H](O)C[C@H]2C(=O)N[C@@H](Cc2c[nH]c3ccccc23)C(=O)N[C@@H](CCN)C(=O)N[C@@H](Cc2c[nH]c3ccccc23)C(=O)N1C [Example 5073] ({CH2CO}-Y[NMeA]NPSL[Hyp]W[Dab]W[NMeNle][NMeNle]LCG-NH2; thioether N-14)	LK35.2-hPD-L1 cells / PE-labeled PD-1-Ig (Homo sapiens, UniProt Q9NZQ7)	8.33 to 9.80
CCCC[C@H]1C(=O)N(C)[C@@H](CCCC)C(=O)N[C@@H](CC(C)C)C(=O)N[C@H](C(=O)NCC(N)=O)CSCC(=O)N[C@@H](Cc2ccc(O)cc2)C(=O)N(C)[C@@H](C)C(=O)N[C@@H](CC(N)=O)C(=O)N2CCC[C@H]2C(=O)N[C@@H](CN)C(=O)N[C@@H](CC(C)C)C(=O)N2CCC[C@H]2C(=O)N[C@@H](Cc2c[nH]c3ccccc23)C(=O)N[C@@H](CCN)C(=O)N[C@@H](Cc2c[nH]c3ccccc23)C(=O)N1C [Example 6040] ({CH2CO}-Y[NMeA]NP[Dap]LPW[Dab]W[NMeNle][NMeNle]LCG-NH2; thioether N-14)	LK35.2-hPD-L1 cells / PE-labeled PD-1-Ig (Homo sapiens, UniProt Q9NZQ7)	8.33 to 9.80
